test system: Staphylococcus vitulinus; test: Antibacterial activity against mecA-negative Staphylococcus vitulinus SVMN11 by agar dilution method; type: functional; conditions: Mammaliicoccus vitulinus
Collected MIC values appear next to each entry.
assay.readout: MIC (µg/mL)

smiles_structure=CO[C@@]1(NC(=O)Cc2cccs2)C(=O)N2C(C(=O)O)=C(COC(N)=O)CS[C@@H]21 assay_readout=MIC numeric_readout=1
smiles_structure=CC1(C)S[C@@H]2[C@H](NC(=O)[C@H](N)c3ccccc3)C(=O)N2[C@H]1C(=O)O assay_readout=MIC numeric_readout=0.125
smiles_structure=Cc1onc(-c2ccccc2)c1C(=O)N[C@@H]1C(=O)N2[C@@H]1SC(C)(C)[C@@H]2C(=O)O assay_readout=MIC numeric_readout=0.5
smiles_structure=CO/N=C(\C(=O)N[C@@H]1C(=O)N2C(C(=O)O)=C(CSc3nc(=O)c(O)nn3C)CS[C@H]12)c1csc(N)n1 assay_readout=MIC numeric_readout=4
smiles_structure=CO/N=C(\C(=O)N[C@@H]1C(=O)N2C(C(=O)O)=CCS[C@H]12)c1csc(N)n1 assay_readout=MIC numeric_readout=1

FYI, the data here is from ChEMBL document CHEMBL1687776.
